Measured hERG current change (%, negative = inhibition) at 1uM of individual entries
# testedSystem: human ether-à-go-go-related gene (hERG) potassium channel (human)
# procedureSummary: primary screen, population patch clamp on CHO cells stably expressing hERG; higher = less effect of the substance
The whole screen tested about 310,000 compounds, of which about 2,200 (0.71%) showed an effect of 50% or more. The effect is printed as a negative number. Many of the other results were omitted from the sample, so strong results are more common in it than they were.
Kindly provide the numeric value in % only, without the unit symbol.

Example results:
// hERG current change (%, negative = inhibition) at 1uM lookup, compound = CCC[C@H](CN[C@@H](CNC)[C@H](C)CC)NCCc1cc(C(F)(F)F)cc(C(F)(F)F)c1 , result: 0.0872

// hERG current change (%, negative = inhibition) at 1uM lookup, compound = O=C(CSc1nc2c(cnn2-c2ccc(F)cc2)c(=O)[nH]1)N1CCCCCC1 , result: 11

// hERG current change (%, negative = inhibition) at 1uM lookup, compound = Clc1ccc(-c2nnc(NCCN3CCCC3)c3ccccc23)cc1 , result: -55.1

// hERG current change (%, negative = inhibition) at 1uM lookup, compound = COc1ccc(NC(=S)N(CCCN2CCOCC2)C(C)c2cc3cccc(OC)c3o2)cc1 (centres unmarked) , result: 3.7

// hERG current change (%, negative = inhibition) at 1uM lookup, compound = CCN(CC)C(=O)c1ccc(NC(=O)c2ccc(-n3cncn3)c([N+](=O)[O-])c2)cc1 , result: 4.18

// hERG current change (%, negative = inhibition) at 1uM lookup, compound = O=C(Nc1ccccc1N1CCCC1)c1ccc([N+](=O)[O-])o1 , result: 1.03

// hERG current change (%, negative = inhibition) at 1uM lookup, compound = Cc1ccc(S(=O)(=O)N(CC(=O)O)Cc2ccccc2F)cc1 , result: 6.83

// hERG current change (%, negative = inhibition) at 1uM lookup, compound = Cc1ccc(-n2c(SCC(=O)NCC3CCCO3)nc3c(c2=O)SCC3)cc1 (centres unmarked) , result: 2.53

// hERG current change (%, negative = inhibition) at 1uM lookup, compound = CCC1(CC)NC(=O)N(CC(=O)OCC(=O)Nc2ccc(C(F)(F)F)cc2)C1=O , result: 2.71

// hERG current change (%, negative = inhibition) at 1uM lookup, compound = Cc1ccc(NC(=S)c2nc3ccccc3[nH]2)c(C)c1 , result: 14.6

More entries:
// hERG current change (%, negative = inhibition) at 1uM lookup, compound = CCN1CCN(c2nc3c(c(=O)[nH]c(=O)n3C)n2Cc2ccccc2)CC1 , result: 1.8

// hERG current change (%, negative = inhibition) at 1uM lookup, compound = CCN1CCN(c2nc3c(c(=O)[nH]c(=O)n3C)n2CCCc2ccccc2)CC1 , result: -81.5

// hERG current change (%, negative = inhibition) at 1uM lookup, compound = COc1cccc(NC(=O)C2c3cc(OC)c(OC)cc3C(=O)N(C)C2c2cccnc2)c1 (centres unmarked) , result: 1.83

// hERG current change (%, negative = inhibition) at 1uM lookup, compound = CN1CCN(c2ccccc2NC(=O)c2ccc([N+](=O)[O-])o2)CC1 , result: -62.4

// hERG current change (%, negative = inhibition) at 1uM lookup, compound = CCC(=O)N1CCN(c2ccccc2NC(=O)c2ccc([N+](=O)[O-])o2)CC1 , result: -60.5

// hERG current change (%, negative = inhibition) at 1uM lookup, compound = CCCNC(=O)CN(Cc1ccccc1F)S(=O)(=O)c1ccc(C)cc1 , result: 5.85

// hERG current change (%, negative = inhibition) at 1uM lookup, compound = CCCCCn1c(CN2CCN(Cc3ccccc3)CC2)nc2c1c(=O)[nH]c(=O)n2C , result: -72.5

// hERG current change (%, negative = inhibition) at 1uM lookup, compound = Cc1cccn2c(=O)c3cc(C(=O)NCCc4ccccc4)c(=N)n(CCCn4ccnc4)c3nc12 , result: -61.3

----------
Measured hERG current change (%, negative = inhibition) at 1uM of individual entries
# testedSystem: human ether-à-go-go-related gene (hERG) potassium channel (human)
# procedureSummary: primary screen, population patch clamp on CHO cells stably expressing hERG; higher = less effect of the substance
Screen size: about 310,000 compounds; about 2,200 (0.71%) showed an effect of 50% or more. Effects have a minus sign here. The list comes from a sample in which strong results are over-represented; it also holds close analogues and randomly drawn compounds.

Example results:
// hERG current change (%, negative = inhibition) at 1uM lookup, compound = COc1ccc(Cn2c(=N)c(C(=O)NC3CCCCC3)cc3c(=O)n4ccccc4nc32)cc1 , result: -5.89%

// hERG current change (%, negative = inhibition) at 1uM lookup, compound = O=C(Nc1ccc2c(c1)OCO2)c1cnccn1 , result: 8.63%

// hERG current change (%, negative = inhibition) at 1uM lookup, compound = COc1ccc(CCn2c(=N)c(C(=O)NC3CCCCC3)cc3c(=O)n4ccccc4nc32)cc1 , result: -84.1%

More entries:
// hERG current change (%, negative = inhibition) at 1uM lookup, compound = Cc1cc(C)nc(SCc2nnc(SCC(N)=O)n2Cc2ccco2)n1 , result: -3.7%

// hERG current change (%, negative = inhibition) at 1uM lookup, compound = COc1ccc(/C=C2\CCCC3C2=NN(C(=O)CSc2ncn[nH]2)C3c2ccc(OC)cc2)cc1 (stereo not shown) , result: 16.5%

// hERG current change (%, negative = inhibition) at 1uM lookup, compound = COc1ccc(-c2cc(N)n(S(=O)(=O)Cc3ccccc3)n2)c(OC)c1 , result: -4.34%

// hERG current change (%, negative = inhibition) at 1uM lookup, compound = COc1ccc(CCn2c(=N)c(S(=O)(=O)c3ccccc3)cc3c(=O)n4ccccc4nc32)cc1 , result: 10.8%

----------
# testedSystem: human ether-à-go-go-related gene (hERG) potassium channel (human, UniProt Q12809)
# Sequence (Q12809 whole entry, looked up): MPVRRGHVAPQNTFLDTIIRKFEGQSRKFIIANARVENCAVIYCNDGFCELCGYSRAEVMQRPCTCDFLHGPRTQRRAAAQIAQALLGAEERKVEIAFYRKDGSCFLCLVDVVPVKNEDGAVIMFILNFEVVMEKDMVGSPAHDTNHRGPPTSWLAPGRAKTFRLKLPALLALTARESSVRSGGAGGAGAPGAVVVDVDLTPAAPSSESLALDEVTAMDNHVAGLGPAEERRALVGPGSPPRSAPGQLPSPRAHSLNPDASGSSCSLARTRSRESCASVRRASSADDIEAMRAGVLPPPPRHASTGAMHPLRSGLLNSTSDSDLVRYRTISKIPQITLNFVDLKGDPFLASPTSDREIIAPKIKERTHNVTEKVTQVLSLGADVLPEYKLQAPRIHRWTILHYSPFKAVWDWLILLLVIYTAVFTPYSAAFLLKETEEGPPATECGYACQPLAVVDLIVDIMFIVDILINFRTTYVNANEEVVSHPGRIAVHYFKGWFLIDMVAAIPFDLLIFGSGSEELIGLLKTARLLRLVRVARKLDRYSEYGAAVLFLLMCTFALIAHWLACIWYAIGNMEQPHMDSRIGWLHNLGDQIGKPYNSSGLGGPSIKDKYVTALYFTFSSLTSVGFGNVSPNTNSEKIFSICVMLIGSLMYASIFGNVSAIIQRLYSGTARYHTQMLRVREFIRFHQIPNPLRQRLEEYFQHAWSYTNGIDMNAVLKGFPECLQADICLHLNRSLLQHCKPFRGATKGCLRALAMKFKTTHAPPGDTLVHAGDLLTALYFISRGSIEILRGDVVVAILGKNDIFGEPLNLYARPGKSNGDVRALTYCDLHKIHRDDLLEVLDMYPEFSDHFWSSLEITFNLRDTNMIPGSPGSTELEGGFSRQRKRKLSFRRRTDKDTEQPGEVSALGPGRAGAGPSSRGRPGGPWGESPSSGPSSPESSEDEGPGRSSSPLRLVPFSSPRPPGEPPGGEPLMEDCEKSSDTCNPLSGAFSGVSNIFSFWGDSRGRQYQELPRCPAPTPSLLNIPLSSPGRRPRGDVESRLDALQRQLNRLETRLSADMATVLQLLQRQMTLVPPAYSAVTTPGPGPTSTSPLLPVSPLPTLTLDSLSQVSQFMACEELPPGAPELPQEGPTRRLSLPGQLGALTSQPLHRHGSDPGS
# procedureSummary: primary screen, population patch clamp on CHO cells stably expressing hERG; higher = less effect of the substance
Among all 310,000 compounds or so, about 2,200 (0.71%) showed an effect of 50% or more. Effects have a minus sign here. This excerpt belongs to a sample that is enriched for strong results.
propertyMeasured: hERG current change (%, negative = inhibition) at 1uM (%)
Kindly provide the numeric value in % only, without the unit symbol.

// hERG current change (%, negative = inhibition) at 1uM lookup, compound = O=C(CN1C(=O)CCC1=O)Nc1nc(-c2nc3ccccc3s2)cs1 , result: -4.37

// hERG current change (%, negative = inhibition) at 1uM lookup, compound = COC(=O)C1=C(O)C(C(=O)OC)C(c2ccc(C)cc2)C(C#N)(C#N)C1c1ccc(C)cc1 (centres unmarked) , result: 6.75

// hERG current change (%, negative = inhibition) at 1uM lookup, compound = O=C(OCc1ccc2c(c1)OCO2)c1ccc(S(=O)(=O)N2CCCC2)cc1 , result: 3.44

// hERG current change (%, negative = inhibition) at 1uM lookup, compound = COc1cccc(CCNC(=O)c2ccc(OC)c(OC3CCN(C(C)C)CC3)c2)c1 , result: -2.35

// hERG current change (%, negative = inhibition) at 1uM lookup, compound = CC1CN(C(=O)COc2ccc3c(-c4ccccc4)cc(=O)oc3c2)CC(C)O1 (centres unmarked) , result: 10.8

More entries:
// hERG current change (%, negative = inhibition) at 1uM lookup, compound = CC(=O)c1ccccc1NC(=O)COC(=O)c1ccc2c(c1)nc(C)n2-c1ccccc1 , result: 20.6

// hERG current change (%, negative = inhibition) at 1uM lookup, compound = CC1CN(C(=O)Nc2ccc(F)cc2F)CC(C)O1 (centres unmarked) , result: -1.61

// hERG current change (%, negative = inhibition) at 1uM lookup, compound = CN1CCCN(C(=O)c2ccc(Br)s2)CC1 , result: 1.6

// hERG current change (%, negative = inhibition) at 1uM lookup, compound = Cc1c(CN(C)C(=O)c2nn(C)cc2[N+](=O)[O-])cnn1C , result: 10.8

// hERG current change (%, negative = inhibition) at 1uM lookup, compound = Cc1ccc(NC(=O)CSc2nnc(-c3ccco3)o2)c(C)c1 , result: 17.5

----------
# testedSystem: human ether-à-go-go-related gene (hERG) potassium channel (human, UniProt Q12809)
# procedureSummary: primary screen, population patch clamp on CHO cells stably expressing hERG; higher = less effect of the substance
About 2,200 (0.71%) of roughly 310,000 compounds showed an effect of 50% or more. The effect is printed as a negative number. The entries come from a sample that favours strong results as a whole.
Measured hERG current change (%, negative = inhibition) at 1uM of individual entries

Example results:
// hERG current change (%, negative = inhibition) at 1uM lookup, molecule = Cc1ccc(CN2CCN(Cc3cccn3-c3ccccn3)CC2CCO)cc1 (centres unmarked) , result: -82.4%

// hERG current change (%, negative = inhibition) at 1uM lookup, molecule = OCCC1CN(Cc2cccn2-c2ccccn2)CCN1C1CCCC1 (centres unmarked) , result: 3.68%

// hERG current change (%, negative = inhibition) at 1uM lookup, molecule = CCCCC(=O)O[C@]1(C(=O)CO)CC[C@H]2[C@@H]3CCC4=CC(=O)CC[C@]4(C)[C@H]3[C@@H](O)C[C@@]21C , result: 11.4%

// hERG current change (%, negative = inhibition) at 1uM lookup, molecule = CC(C)N1CCN(Cc2cccn2-c2ccccn2)CC1CCO (centres unmarked) , result: -16%

// hERG current change (%, negative = inhibition) at 1uM lookup, molecule = CCOc1ccccc1NC(=S)N(CCCN1CCOCC1)Cc1cn(C)c2ccccc12 , result: 5.62%

More entries:
// hERG current change (%, negative = inhibition) at 1uM lookup, molecule = CC[n+]1c(/C=C/C=C/c2ccc(N(C)C)cc2)sc2ccccc21.[O-][Cl+3]([O-])([O-])[O-] , result: -29%

// hERG current change (%, negative = inhibition) at 1uM lookup, molecule = CC1CCC(C(C)C)C(OC(=O)Cn2c(-c3ccc(Cl)cc3)[n+](C)c3ccccc32)C1.[Cl-] (centres unmarked) , result: -58%

// hERG current change (%, negative = inhibition) at 1uM lookup, molecule = O=S(=O)(c1cccc(-c2nnc(SCc3nc4ccccc4s3)o2)c1)N1CCOCC1 , result: -2.26%

// hERG current change (%, negative = inhibition) at 1uM lookup, molecule = O=C(NC(c1ccccc1)c1ccccn1)c1cccc([N+](=O)[O-])c1 (centres unmarked) , result: 12.3%

// hERG current change (%, negative = inhibition) at 1uM lookup, molecule = CC(C)CN1CCN(Cc2cccn2-c2ccccn2)CC1CCO (centres unmarked) , result: -18.8%

// hERG current change (%, negative = inhibition) at 1uM lookup, molecule = CC[n+]1c(/C=C/C=C/N(C(C)=O)c2ccccc2)sc2ccccc21.[I-] , result: -52.2%

// hERG current change (%, negative = inhibition) at 1uM lookup, molecule = CC[n+]1c(/C=C/C=C/N(C(C)=O)c2ccccc2)sc2cc(OC)ccc21.[I-] , result: 7.77%

// hERG current change (%, negative = inhibition) at 1uM lookup, molecule = CC(=O)Nc1ccc(/C=N/NC(=O)CCN2CCN(c3ccccc3)CC2)cc1 , result: 5.44%

// hERG current change (%, negative = inhibition) at 1uM lookup, molecule = CSCCC(NC(=O)c1ccc(Cl)cc1)C(=O)OCC(=O)Nc1ccc(C#N)cc1 (centres unmarked) , result: -1.39%
